B1: HDV Ribozyme (parent)
chain: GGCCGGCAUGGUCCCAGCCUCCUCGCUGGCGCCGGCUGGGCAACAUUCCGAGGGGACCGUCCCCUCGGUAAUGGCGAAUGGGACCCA

Variants of: B1
Assay: self-cleavage, relative activity (ratio to wild type); higher = more cleavage; co-transcriptional
Measured self-cleavage determines class: lower band = under 0.2, central band = from 0.2 up to 0.3, upper band = 0.3 and over

{"MUTANT": "C33A C58G", "LABEL_CLASS": "upper band"}

Which self-cleavage band matches C30U G73U ?
lower band

Which self-cleavage band matches G2C U47G ?
lower band

Which self-cleavage band matches C36A A51G ?
central band

Which self-cleavage band matches A78U G80A ?
lower band

Which self-cleavage band matches U47A C85G ?
upper band

Which self-cleavage band matches G50C C61A ?
upper band
